target: hNurr1_RXRαFL (NURR1/RXRα heterodimer) (Homo sapiens, UniProt P19793+P43354); assay: Transactivation assay in Cos-7 cells, NURR-1-Gal4 / RXRα, luciferase reporter; conditions: Cos-7 cells, overnight incubation
Sequence (P19793 whole entry, the tested form may be a part): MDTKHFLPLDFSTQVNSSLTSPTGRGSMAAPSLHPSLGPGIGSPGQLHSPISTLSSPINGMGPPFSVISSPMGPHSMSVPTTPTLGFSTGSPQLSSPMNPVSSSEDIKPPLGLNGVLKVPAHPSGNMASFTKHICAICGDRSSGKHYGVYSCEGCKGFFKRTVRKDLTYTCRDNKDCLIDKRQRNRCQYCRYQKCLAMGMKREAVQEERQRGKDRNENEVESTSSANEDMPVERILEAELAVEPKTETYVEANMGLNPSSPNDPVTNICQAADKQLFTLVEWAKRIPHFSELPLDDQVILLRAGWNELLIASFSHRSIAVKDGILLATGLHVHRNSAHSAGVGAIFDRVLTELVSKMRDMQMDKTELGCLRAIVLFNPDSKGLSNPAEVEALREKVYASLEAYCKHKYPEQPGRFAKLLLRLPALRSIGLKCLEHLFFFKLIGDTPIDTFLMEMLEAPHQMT
Sequence (P43354 328-598): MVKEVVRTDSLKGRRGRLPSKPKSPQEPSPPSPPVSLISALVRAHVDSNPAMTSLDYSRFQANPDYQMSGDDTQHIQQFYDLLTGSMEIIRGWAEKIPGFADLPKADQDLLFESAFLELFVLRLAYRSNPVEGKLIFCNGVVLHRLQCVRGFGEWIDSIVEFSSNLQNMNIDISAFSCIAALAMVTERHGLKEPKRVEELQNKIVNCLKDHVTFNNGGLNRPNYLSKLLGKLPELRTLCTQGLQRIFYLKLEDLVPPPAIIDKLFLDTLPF
EC50: recorded values
Lab book: enter the figure in nM, no units written.

Record lookup: for hNurr1_RXRαFL (NURR1/RXRα heterodimer) (Homo sapiens, UniProt P19793+P43354), what EC50 belongs to CC(C)(CO)c1cccc(S(=O)(=O)n2c(Cc3ccc(C(=O)O)cc3)cc3cc(C(F)(F)F)ccc32)c1 [Example 231] ? 65

---
I'm curious: which EC50 was measured for O=C(O)c1ccc(Cc2cc3cc(C(F)(F)F)ccc3n2S(=O)(=O)c2ccc(F)cc2)cc1 [Example 137] tested on hNurr1_RXRαFL (NURR1/RXRα heterodimer) (Homo sapiens, UniProt P19793+P43354)? 529

Value wanted: EC50 (hNurr1_RXRαFL (NURR1/RXRα heterodimer) (Homo sapiens, UniProt P19793+P43354)) of entry O=C(O)c1ccc(Cc2cc3cc(C(F)(F)F)ccc3n2S(=O)(=O)c2cccc(-c3ccc(Cl)cc3)c2)cc1 [Example 146] 619

----------
Biological target: hNurr1_RXRαFL (NURR1/RXRα heterodimer) (Homo sapiens, UniProt P19793+P43354)
Assay: Transactivation assay in Cos-7 cells, NURR-1-Gal4 / RXRα, luciferase reporter
Settings: Cos-7 cells, overnight incubation
Method: First, the capacity of the compounds according to the invention for acting as an activator of the heterodimers formed by the NURR-1 nuclear receptor and the RXR nuclear receptors was measured by an in vitro assay. A transactivation assay was used as a primary screening assay. […] After 24 hours, the culture medium was changed. […] After overnight incubation, luciferase expression was measured after addition of “SteadyGlo” according to the manufacturer's instructions (Promega). […]
Strictly below 100 nM in EC50: T. Otherwise: F.

Given `CC(C)c1ccc(S(=O)(=O)n2c(Cc3csc(C(=O)O)c3)cc3cc(C(F)(F)F)ccc32)cc1` , is recorded EC50 strictly lower than 100 nM? T

New cases:
In plain terms, does CC(C)(C)c1cccc(S(=O)(=O)n2c(C(O)c3ccc(C(=O)O)s3)cc3cc(C(F)(F)F)ccc32)c1 (stereo not drawn) come in under 100 nM for EC50? T

# strict comparison: is reported EC50 < 100 nM? input = `CC(C)Oc1ccc(S(=O)(=O)n2c(Cc3ccc(C(=O)O)cc3)cc3cc(Cl)ccc32)cc1` F

Identify whether the compound `C=C(c1ccc(C(=O)O)s1)c1cc2cc(C(F)(F)F)ccc2n1S(=O)(=O)c1cccc(C(C)(C)C)c1` records EC50 below 100 nM. F

Given the entry `CC(C)(C)c1ccc(S(=O)(=O)n2c(Cc3ccc(C(=O)O)cc3)cc3cc(C(F)(F)F)ccc32)cc1` , would its reported EC50 be below 100 nM? F

Please state whether EC50 is below 100 nM for `COC(=O)c1ccc(Cc2cc3ccccc3n2S(=O)(=O)c2cccc(C(C)(C)C)c2)cc1` F

----------
A collection of compounds and their measured EC50
target: hNurr1_RXRγFL (NURR1/RXRγ heterodimer) (Homo sapiens, UniProt P43354+P48443); experiment: Transactivation assay in Cos-7 cells, NURR-1-Gal4 / RXRγ, luciferase reporter; conditions: Cos-7 cells, overnight incubation
Sequence (P48443 whole entry, one chain of several, the tested form may be a part): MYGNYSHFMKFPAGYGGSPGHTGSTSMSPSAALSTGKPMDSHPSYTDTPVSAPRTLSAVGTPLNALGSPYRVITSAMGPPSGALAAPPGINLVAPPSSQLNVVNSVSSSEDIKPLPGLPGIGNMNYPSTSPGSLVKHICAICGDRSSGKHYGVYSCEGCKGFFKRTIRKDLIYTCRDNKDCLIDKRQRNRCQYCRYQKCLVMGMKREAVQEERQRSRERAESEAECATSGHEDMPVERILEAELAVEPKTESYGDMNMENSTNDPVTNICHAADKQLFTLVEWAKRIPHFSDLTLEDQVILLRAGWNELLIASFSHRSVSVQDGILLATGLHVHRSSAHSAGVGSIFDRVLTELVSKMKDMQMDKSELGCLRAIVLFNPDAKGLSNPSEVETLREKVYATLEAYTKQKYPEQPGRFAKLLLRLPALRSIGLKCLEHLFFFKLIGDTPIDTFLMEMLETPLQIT
Write the value in nM as a bare number.

Recorded EC50, per entry:
Consider the compound O=C(O)c1ccc(Cc2cc3cc(Cl)ccc3n2S(=O)(=O)c2ccc(Cl)cc2)cc1 [Example 160] and give its measured EC50. 1390

Report EC50 for COc1ccc(S(=O)(=O)n2c(Cc3ccc(C(=O)O)cc3)cc3cc(C(F)(F)F)ccc32)cn1 [Example 120] please. 661

Can you look up the measured EC50 of CCCc1ccc(S(=O)(=O)n2c(Cc3ccc(C(=O)O)cc3)cc3cc(Cl)ccc32)cc1 [Example 152] for me? 858

Would you mind telling me what EC50 value was observed for O=C(O)c1ccc(Cc2cc3cc(C(F)(F)F)ccc3n2S(=O)(=O)c2ccc(F)c(Cl)c2)cc1 [Example 15] ? 746

---
Recorded EC50 of CC(C)(C)c1cccc(S(=O)(=O)n2c(Cc3ccc(C4=NOC(=O)C4)cc3)cc3cc(C(F)(F)F)ccc32)c1 [Example 228] , please. 335

Record request: EC50 value, item CS(=O)(=O)n1c(Cc2ccc(C(=O)O)cc2)cc2cc(Cl)ccc21 [Example 181] 4070

Request the reported EC50 associated with CC(C)c1ccc(S(=O)(=O)n2c(Cc3ccc(C(=O)O)c(O)c3)cc3cc(C(F)(F)F)ccc32)cc1 [Example 68] 553
